Tested on: SW 1573
Experiment: relative viability (nuclei count vs DMSO), 5 days (fraction); higher = more cells survive
Conditions: first compound 2 µM
VALUE_KIND: relative viability
Number only, please.

{"COMPOUND": "COCC1(CO)C(=O)C2CCN1CC2 (stereo not drawn) [PRIMA-1MET] + CC(=O)Nc1cccc(-n2c(=O)n(C3CC3)c(=O)c3c(Nc4ccc(I)cc4F)n(C)c(=O)c(C)c32)c1 [Trametinib] (partner 0.02 µM)", "relative viability": 0.409}
{"COMPOUND": "COCC1(CO)C(=O)C2CCN1CC2 (stereo not drawn) [PRIMA-1MET] + C[C@@H](Oc1cc(-c2cnn(C3CCNCC3)c2)cnc1N)c1c(Cl)ccc(F)c1Cl [Crizotinib] (partner 1 µM)", "relative viability": 0.843}

Okay, now this compound:
Query (compound): COCC1(CO)C(=O)C2CCN1CC2 (stereo not drawn) [PRIMA-1MET] + Nc1nc2[nH]cc(CCc3ccc(C(=O)N[C@@H](CCC(=O)O)C(=O)O)cc3)c2c(=O)[nH]1 [Pemetrexed] (partner 0.2 µM) ; field requested: relative viability
0.752

====

Reported relative viability values are given for each entry in this list.
System: UMC-11
Test: relative viability (nuclei count vs DMSO), 5 days (fraction); higher = more cells survive
Details: first compound 0.1 µM
Could you respond with only the numeric value?

A selection of reference data follows.
{"COMPOUND": "CCN(CC)CCCCNc1ncc2cc(-c3cc(OC)cc(OC)c3)c(NC(=O)NC(C)(C)C)nc2n1 + O=C(c1cc(Cc2n[nH]c(=O)c3ccccc23)ccc1F)N1CCN(C(=O)C2CC2)CC1 [Olaparib] (partner 8 µM)", "relative viability": 0.422}
{"COMPOUND": "CCN(CC)CCCCNc1ncc2cc(-c3cc(OC)cc(OC)c3)c(NC(=O)NC(C)(C)C)nc2n1 + CC(C)C[C@H](NC(=O)[C@H](Cc1ccccc1)NC(=O)c1cnccn1)B(O)O [Bortezomib] (partner 0.002 µM)", "relative viability": 0.73}
{"COMPOUND": "CCN(CC)CCCCNc1ncc2cc(-c3cc(OC)cc(OC)c3)c(NC(=O)NC(C)(C)C)nc2n1 + C[C@@H](Oc1cc(-c2cnn(C3CCNCC3)c2)cnc1N)c1c(Cl)ccc(F)c1Cl [Crizotinib] (partner 1 µM)", "relative viability": 0.636}
{"COMPOUND": "O=c1cc(N2CCOCC2)oc2c(-c3cccc4c3sc3ccccc34)cccc12 + Nc1ncn([C@H]2C[C@H](O)[C@@H](CO)O2)c(=O)n1 [Decitabine] (partner 2 µM)", "relative viability": 0.492}
{"COMPOUND": "O=c1cc(N2CCOCC2)oc2c(-c3cccc4c3sc3ccccc34)cccc12 + Nc1nc2[nH]cc(CCc3ccc(C(=O)N[C@@H](CCC(=O)O)C(=O)O)cc3)c2c(=O)[nH]1 [Pemetrexed] (partner 0.2 µM)", "relative viability": 0.868}

relative viability lookup needed for CCN(CC)CCCCNc1ncc2cc(-c3cc(OC)cc(OC)c3)c(NC(=O)NC(C)(C)C)nc2n1 + C[C@]1(O)C[C@@H](c2nc(-c3ccc4ccc(-c5ccccc5)nc4c3)c3c(N)nccn32)C1 [Linsitinib] (partner 1 µM) , thanks.
1.29

One more compound: O=c1cc(N2CCOCC2)oc2c(-c3cccc4c3sc3ccccc34)cccc12 + CS(=O)(=O)N1CCN(Cc2cc3nc(-c4cccc5[nH]ncc45)nc(N4CCOCC4)c3s2)CC1 [Pictilisib] (partner 1 µM)
0.773

Input CCN(CC)CCCCNc1ncc2cc(-c3cc(OC)cc(OC)c3)c(NC(=O)NC(C)(C)C)nc2n1 + CC(=O)Nc1cccc(-n2c(=O)n(C3CC3)c(=O)c3c(Nc4ccc(I)cc4F)n(C)c(=O)c(C)c32)c1 [Trametinib] (partner 0.02 µM)
0.593

Now the same for CCN(CC)CCCCNc1ncc2cc(-c3cc(OC)cc(OC)c3)c(NC(=O)NC(C)(C)C)nc2n1 + N=C(N)NC(=N)NCCc1ccccc1 [Phenformin] (partner 250 µM)
0.371

The reported measurements were obtained from the supplement of paper PMC10307832.
